System Tested: Lanosterol synthase (Homo sapiens, UniProt P48449)
pIC50: −log10 of the molar value.
Decision: pIC50 compared against 7; not below it gives True, below it gives False.

CN(C(=O)Oc1ccc(Cl)cc1)[C@H]1CC[C@H](c2ccc(CN3CCCCC3)cc2)CC1 ... True

Decide: pIC50 of CN(CCCCCCOC1CCN(C(=O)c2ccc(F)cc2)CC1)C1CC1 >= 7?
True

And then C=CCN(C)CCCCCCOc1ccc2c(-c3ccc(Br)cc3)coc2c1 , what is it?
False

====

System Tested: Lanosterol synthase (Homo sapiens, UniProt P48449)
Sequence (P48449 whole entry): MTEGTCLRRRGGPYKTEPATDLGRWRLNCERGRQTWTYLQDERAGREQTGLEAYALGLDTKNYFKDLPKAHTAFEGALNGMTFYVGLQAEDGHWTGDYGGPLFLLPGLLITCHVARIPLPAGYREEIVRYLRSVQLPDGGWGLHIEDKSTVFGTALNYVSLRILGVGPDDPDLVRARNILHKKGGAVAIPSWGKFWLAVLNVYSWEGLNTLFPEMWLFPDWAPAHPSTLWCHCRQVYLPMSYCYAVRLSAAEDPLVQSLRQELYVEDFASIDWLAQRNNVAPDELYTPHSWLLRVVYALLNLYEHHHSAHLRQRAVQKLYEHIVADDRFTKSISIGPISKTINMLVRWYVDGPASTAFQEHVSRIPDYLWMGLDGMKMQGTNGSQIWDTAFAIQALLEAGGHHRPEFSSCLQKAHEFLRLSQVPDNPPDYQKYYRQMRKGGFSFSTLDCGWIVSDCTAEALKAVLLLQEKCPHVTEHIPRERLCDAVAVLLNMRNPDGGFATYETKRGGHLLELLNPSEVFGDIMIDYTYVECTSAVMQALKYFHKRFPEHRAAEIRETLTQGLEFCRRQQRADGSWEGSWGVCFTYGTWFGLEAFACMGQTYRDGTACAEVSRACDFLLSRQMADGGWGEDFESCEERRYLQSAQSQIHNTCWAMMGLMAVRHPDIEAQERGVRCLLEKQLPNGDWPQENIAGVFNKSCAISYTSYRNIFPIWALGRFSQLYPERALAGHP
Test: Inhibitory activity against Oxidosqualene-lanosterol cyclase from human liver microsomes
Can you tell me IC50 for the items I'm about to list?
Answers are plain numbers, in nM.

C=CCN(C)CCCCCCOc1ccc2c(-c3ccc(Br)cc3)noc2c1 ... 380
C=CCN(C[C@H]1C[C@@H]1COc1ccc(C(=O)c2ccc(Br)cc2)cc1)C1CC1 ... 223
O=C(c1ccc(Cl)cc1)N1CCC(=Cc2ccc(C3=NCCO3)cc2)CC1 ... 36

Fill blank: measured IC50 of the compound C=CCN(C)CCCCCCOc1ccc2c(-c3ccc(Br)cc3)n[nH]c2c1 is ____.
39
